# Test system: RXF 393 renal
# Experiment notes: NCI tumour cell line growth inhibition, 48 h
Observable: TGI

Previously resolved entries follow.
{"columns": ["Compound", "TGI"],
 "data": [
  ["Cc1ccccc1NC(=S)N=Nc1c(O)[nH]c2ccccc12", "> 100 µM"],
  ["COC(=O)c1[nH]nc(-c2ccccc2)c1N1CCCCC1", "54.5 µM"],
  ["Cc1ccc([N+](=O)[O-])cc1S(=O)(=O)Nc1ccc(C2=NN(c3ccc([N+](=O)[O-])cc3[N+](=O)[O-])C(c3ccccc3O)C2)cc1 (stereo not given)", "> 100 µM"]
]}

For each of the compounds below, state TGI.
1. Cc1sc2nc(-c3ccccn3)c(/C=N/N=C(N)N)n2c1C
2. COCC(=O)[C@]1(O)Cc2c(O)c3c(c(O)c2[C@@H](OC2CC(N)C(O)C(C)O2)C1)C(=O)c1c(OC)cccc1C3=O (stereo not given in full)
3. COc1cc2c(cc1OCCCCCCNC(=O)c1cc3ccccc3[nH]1)N=CC1CCCN1C2=O (stereo not given)

Reply |
["16.1 µM", "0.267 µM", "54.6 µM"]

###

For each record, write down the corresponding TGI.
# System: UACC-62 melanoma
# Experiment notes: NCI tumour cell line growth inhibition, 48 h

Kindly give each listed record's TGI.
1. CCC(=N\NC(N)=S)/C(C)=N/O
2. Cc1ccc(S(=O)(=O)n2cc(-c3cnc(N)c(Br)n3)c3ccccc32)cc1
3. COc1ccc(-c2cc(-c3ccccc3)c(C#N)c(=O)[nH]2)cc1
4. CC(C)(C)c1ccc(C(=O)N/N=C/c2ccc(O)cc2O)cc1

Reply |
1. > 100 µM
2. > 57.2 µM
3. > 100 µM
4. 3.2 µM

###

# System: T-47D breast
# Experiment notes: NCI tumour cell line growth inhibition, 48 h; in the data active = GI50 below about 0.43 µM; inactive = the rest
Can you answer with just one of these options? yes (1) (active), no (0) (inactive)

{"columns": ["Entry smiles", "Class name"],
 "data": [
  ["CCN(CC)c1ccc(/C=C/C(=O)c2cccc(NS(C)(=O)=O)c2)cc1", "no (0)"],
  ["COC(=O)Nc1nc2c(OC)c(OC)c(OC)cc2[nH]1", "no (0)"],
  ["Cc1cc[c-]cc1.Fc1c[c-]c(-c2ccccn2)c(F)c1.N#CCC[PH+](CCC#N)c1ccccc1.[Pt+2]", "no (0)"]
]}

Ask | Check the results log: what was the call for COc1cc(Nc2ncc3c(n2)-c2ccc(Cl)cc2C(c2c(F)cccc2OC)=NC3)ccc1C(=O)O ?
Reply | no (0)

Ask | Returns: the outcome recorded for CC[C@](O)(C(=O)O)c1cc2n(c(=O)c1CO)Cc1cc3ccccc3nc1-2 in this assay.
Reply | yes (1)

Ask | What did the test return for O=C(Cc1ccc(/C=C/C(=O)c2ncc[nH]2)cc1)Nc1ccc(Br)cc1 ?
Reply | no (0)

Ask | Answer briefly: the call reported for COc1ccc(C(=O)Nc2ncc(Cc3ccc(F)cc3)s2)cc1 in this assay.
Reply | yes (1)

Ask | Status in this test for Clc1ccccc1-c1nc2ccccc2[nH]1 ?
Reply | no (0)

Ask | For C[C@@H]1CN(Cc2ccc(/C=C/c3n[nH]c4ccc5nc(-c6cn[nH]c6C(F)(F)F)c6c(c5c34)CCCC6)cc2)C[C@H](C)O1 , which call appears in the assay record?
Reply | no (0)

Ask | Outcome? Cc1ccc(C(=O)Nc2ccc(CN3CCN(C)CC3)c(C(F)(F)F)c2)cc1C#Cc1cncc2ncccc12
Reply | no (0)

###

# Tested on: LOX IMVI melanoma
# Experiment notes: NCI tumour cell line growth inhibition, 48 h
Assignment: determine reported TGI for the given compounds.
Answers are plain numbers, in µM.

Would you please look over these solved cases?
{"columns": ["Compound", "Uom", "TGI"],
 "data": [
  ["C[C@@H]1CN(Cc2ccc(/C=C/c3n[nH]c4ccc5nc(-c6cn[nH]c6C(F)(F)F)c6c(c5c34)CCCC6)cc2)C[C@H](C)O1", "µM", 10.8],
  ["Cc1ccccc1NC(=S)N/N=C(/c1ccccc1)c1ccccn1", "µM", 20.4],
  ["O=S(=O)(NC(=S)Nc1ccccc1)c1ccc(N2N=C3c4ccccc4CC3C2c2ccc(Cl)cc2)cc1 (stereo unspecified)", "µM", 39],
  ["O=C1Nc2ccccc2C12CC(c1ccccc1)=NN2 (stereo unspecified)", "µM", 87.4]
]}

The record that follows has no TGI shown yet.
Ask | API: value(readout=TGI, system=LOX IMVI melanoma) for record O=C(/C=C/c1cccs1)c1ccsc1
Reply | 35.1

###

# System: OVCAR-3 ovarian
# Experiment notes: NCI tumour cell line growth inhibition, 48 h
Assign TGI to each entry below.

{"columns": ["Compound", "Observable", "Reading"],
 "data": [
  ["O=C1C[C@H](c2ccccc2)C2(C(=O)c3ccccc3C2=O)[C@@H](c2ccccc2)C1", "TGI", "> 100 µM"]
]}

Take each entry in turn and give its TGI.
1. CNC1=C(C)C(=O)C(C)=C(C(C)(C)CC(=O)n2cc(F)c(=O)[nH]c2=O)C1=O
2. CCOC(=O)CNC(SC)=C(C#N)C#N
3. CC1CCC2c3c([nH]c4ccccc34)C3C(=O)N(C4CCCCC4)C(=O)C3C2C1 (centres undefined)
4. O=C(CCCn1ccnc1[N+](=O)[O-])NCCn1cnc([N+](=O)[O-])c1
5. COc1ccc(CNc2nc3ccccc3nc2-c2cccs2)cc1OC

Reply |
1. > 100 µM
2. > 100 µM
3. 39.8 µM
4. > 100 µM
5. > 100 µM

Dear colleague, could you send me TGI for each of the items below? Thanks.
1. CC(=O)OCC1OC(OCC2OC(N3C(=S)N[C@H]([C@@H](O)[C@H](O)[C@H](O)CO)[C@H]3O)C(OC(C)=O)C(OC(C)=O)C2OC(C)=O)C(OC(C)=O)C(OC(C)=O)C1OC(C)=O (some centres undefined)
2. Cc1ccc(S(=O)(=Nc2ccccc2)C(C(C)C)C(C)(C)Cl)cc1 (centres undefined)
3. C=C1c2nc3ccccc3n2C=C(c2ccc(Cl)cc2)N1c1ccccc1

Reply |
1. > 100 µM
2. > 50 µM
3. 38.5 µM

###

# Tested on: OVCAR-8 ovarian
# Experiment notes: NCI tumour cell line growth inhibition, 48 h
What TGI was measured for each of the following?

See these solved cases before continuing.
{"columns": ["Molecule", "TGI"],
 "data": [
  ["N#CC1N(C(=O)c2ccc(F)cc2)c2ccccc2N1C(=O)c1ccc(F)cc1", "> 100 µM"],
  ["CC(C)[C@@H](C(=O)O[C@@H]1/C=C/C(=O)O[C@@H](C)CCC/C=C/[C@@H]2C[C@H](O)C[C@H]21)[N+](C)(C)C", "> 100 µM"],
  ["COC(=O)C1=C(OC(=O)/C(=C/c2ccc(Cl)cc2)c2ccccc2)C(C(=O)OC)[C@@]2(O)[C@@H](C(=O)OC)[C@H](C)C[C@@H]1[C@@H]2C(=O)OC (stereo partly specified)", "> 100 µM"],
  ["COC(=O)C[C@H](COCc1ccccc1)NC(=O)C[C@H](COCc1ccccc1)NC(=O)C[C@H](COCc1ccccc1)NC(=O)OC(C)(C)C", "> 100 µM"],
  ["C#CCOCn1cnc2ncnc(Cl)c21", "> 100 µM"],
  ["Cn1c(=O)c(C(c2ccccc2)c2c(O)c3ccccc3n(C)c2=O)c(O)c2ccccc21", "> 100 µM"]
]}

Take each entry in turn and give its TGI.
1. N/C(=N\Nc1nc2cc([N+](=O)[O-])ccc2o1)c1ccccn1
2. C/C1=C\CC[C@@](C)(O)[C@H]2C[C@H](CC/C(C)=C/CC1)C1(CC1)C(=O)O2
3. O=C1C[C@H](c2ccccc2)C2(C(=O)c3ccccc3C2=O)[C@@H](c2ccccc2)C1
4. CC(=O)OCCC/C(=C\c1ccc2ccccc2c1)[N+](=O)[O-]
5. COCC(=O)[C@]1(O)Cc2c(O)c3c(c(O)c2[C@@H](OC2CC(N)C(O)C(C)O2)C1)C(=O)c1c(OC)cccc1C3=O (stereo partly specified)
6. CC1NOC(NS(=O)(=O)c2ccc(N=Nc3c(O)c(C(=O)O)cc4ccccc34)cc2)C1C (stereo unspecified)
7. CC1(C)CCc2cc3c(cc2O1)OC(C)(C)C1c2c(ccc4c2CCC(C)(C)O4)OC31 (stereo unspecified)
8. O=C1C[C@@H](c2ccccc2)NCCCCN(O)CCCN1

Reply |
1: 10.6 µM; 2: 40.8 µM; 3: > 100 µM; 4: 5.09 µM; 5: 3.95 µM; 6: > 100 µM; 7: > 100 µM; 8: > 100 µM

###

# Tested on: MDA-N
# Experiment notes: NCI tumour cell line growth inhibition, 48 h
Give measured TGI for each item. Keep answers brief.
Answers are plain numbers, in µM.

Previously resolved entries follow.
{"columns": ["Compound", "TGI [µM]"],
 "data": [
  ["Cc1ccccc1NC(=S)N/N=C(/c1ccccc1)c1ccccn1", 14.1],
  ["CSc1nc(Cl)c(Br)c(Nc2c[nH]c(=O)[nH]c2=O)n1", 46.9],
  ["CC(O)(c1ccccc1)c1nccc2ccccc12 (configuration not stated)", 53.7],
  ["CC(=O)Oc1ccc(OC(Oc2ccccc2)c2ccccc2)cc1 (configuration not stated)", 42.2],
  ["N/C(=N\\OC(=O)NC(Cl)=C(Cl)Cl)c1cc(C(F)(F)F)cc(C(F)(F)F)c1", 59.5]
]}

Ask | Consider the compound C=CCC1NCCC2=C1C(S(=O)(=O)c1ccc(C)cc1)c1ccccc12 (configuration not stated) and give its measured TGI.
Reply | 20.2
